System: 565232-114-T-J1-PDC complex spheroid viability;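 note: spheroids exposed to compounds for 7 days before readout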
assay-remarks: Anticancer human tumor 565232-114-T-J1-PDC patient-derived bladder carcinoma cell line growth inhibition [CLK]
protocol-conditions: curve of first compound; second compound 3.16 µM
pIC50: −log10 of the molar value.
Assign pIC50 to each entry below.

Entry NC(=O)C(=Cn1cnc(-c2cc(C(F)(F)F)cc(C(F)(F)F)c2)n1)c1cncnc1 + CNC(=O)c1ccc(Nc2nc(OC3CCCC3)c3c(-c4ccc5nc(C)oc5c4)c[nH]c3n2)c(OC)c1 , pIC50 reported as > 8.02

Entry Nc1ccccc1NC(=O)c1ccc(CNC(=O)OCc2cccnc2)cc1 + CN1CCN(c2cc(C(=O)Nc3cc4cc(-c5cnn(C)c5)ccc4cn3)ccn2)CC1 , pIC50 reported as > 7.50

Entry CC1COCCN1c1cc(C2(S(C)(=N)=O)CC2)nc(-c2ccnc3[nH]ccc23)n1 (stereo not given) + CN1CCN(c2cc(C(=O)Nc3cc4cc(-c5cnn(C)c5)ccc4cn3)ccn2)CC1 , pIC50 reported as > 7.50

Entry COc1cccc2c1C(=O)c1c(O)c3c(c(O)c1C2=O)CC(O)(C(=O)CO)CC3OC1CC(N)C(O)C(C)O1 (stereo not given) + CN1CCN(c2cc(C(=O)Nc3cc4cc(-c5cnn(C)c5)ccc4cn3)ccn2)CC1 , pIC50 reported as > 7.50

Entry C=C(F)C(=O)N1CCN(c2nc(OCC3CCCN3C)nc3c2CCN(c2cccc4cccc(Cl)c24)C3)CC1CC#N (stereo not given) + CNC(=O)c1ccc(Nc2nc(OC3CCCC3)c3c(-c4ccc5nc(C)oc5c4)c[nH]c3n2)c(OC)c1 , pIC50 reported as > 7.50
